Hey, just so you know, these numbers are from ChEMBL document CHEMBL1221356.

- System: BT-20
- method: Antiproliferative activity against human BT20 cells assessed as reduction in cell number after 48 hrs by […] assay
- Type: functional
Exercise: state measured MLC for each of the compounds provided.
Kindly answer with a numeric value in µM, unit omitted.

Query: Value lookup for MLC; key = CCCCCCCCO[C@H]1O[C@H](CO)[C@@H](O)[C@H](OCc2ccccc2)[C@H]1OCc1ccccc1
Reply: 75

Query: Value lookup for MLC; key = CCCCCCCCO[C@H]1O[C@@H]2COC(c3ccccc3)O[C@H]2[C@H](O)[C@H]1O (stereo partly drawn)
Reply: 75

Query: Value lookup for MLC; key = CCCCCCCCO[C@@H]1O[C@H](CO)[C@@H](O)[C@H](OCc2ccccc2)[C@H]1OCc1ccccc1
Reply: 100

Query: Value lookup for MLC; key = CCCCCCCCO[C@H]1O[C@@H]2COC(=O)CCCCCCC(=O)O[C@H]2[C@H](O)[C@H]1O
Reply: 50

Query: Value lookup for MLC; key = CCCCCCCCO[C@H]1O[C@@H]2COC(=O)CC/C=C/CCC(=O)O[C@H]2[C@H](OCc2ccccc2)[C@H]1OCc1ccccc1
Reply: 300

Query: Value lookup for MLC; key = CCCCCCCCO[C@@H]1O[C@@H]2COC(c3ccccc3)O[C@H]2[C@H](O)[C@H]1O (stereo partly drawn)
Reply: 300

Query: Value lookup for MLC; key = CCCCCCCCO[C@H]1O[C@@H]2COC(=O)CC/C=C/CCC(=O)O[C@H]2[C@H](OC)[C@H]1OC
Reply: 300

----------
- method: Therapeutic index, ratio of MLC for humanBT20 cells to MIC for BT20 cells
- Type: cell-based, BT-20
- measurement_conditions: human, read-out: TI
Exercise: state measured selectivity ratio for each of the compounds provided.
Give the value as a plain number.

Query: Value lookup for selectivity ratio; key = CCCCCCCCO[C@@H]1O[C@H](CO)[C@@H](O)[C@H](OCc2ccccc2)[C@H]1OCc1ccccc1
Reply: 4

Query: Value lookup for selectivity ratio; key = CCCCCCCCO[C@H]1O[C@@H]2COC(c3ccccc3)O[C@H]2[C@H](O)[C@H]1O (stereo partly drawn)
Reply: 7.5

Query: Value lookup for selectivity ratio; key = CCCCCCCCO[C@H]1O[C@@H]2COC(=O)CCCCCCC(=O)O[C@H]2[C@H](O)[C@H]1O
Reply: 5

Query: Value lookup for selectivity ratio; key = CCCCCCCCO[C@H]1O[C@H](CO)[C@@H](O)[C@H](OCc2ccccc2)[C@H]1OCc1ccccc1
Reply: 3

Query: Value lookup for selectivity ratio; key = CCCCCCCCO[C@@H]1O[C@@H]2COC(c3ccccc3)O[C@H]2[C@H](O)[C@H]1O (stereo partly drawn)
Reply: 6

Query: Value lookup for selectivity ratio; key = CCCCCCCCO[C@H]1O[C@@H]2COC(=O)CC/C=C/CCC(=O)O[C@H]2[C@H](OC)[C@H]1OC
Reply: 6

Query: Value lookup for selectivity ratio; key = CCCCCCCCO[C@H]1O[C@@H]2COC(=O)CC/C=C/CCC(=O)O[C@H]2[C@H](OCc2ccccc2)[C@H]1OCc1ccccc1
Reply: 30
